target: T1, His-Spindlin1(49–262) (human, UniProt Q9Y657 49-262); assay: fluorescence polarisation; His-Spindlin1(49–262) 0.06 to 750 nM titrated against 10 nM FL-H3K4me3; 60 min at 25°C; corrected for unspecific binding with 10 μM unlabeled H3(1–12)K4me3; one-site binding fit; 25 mM Hepes pH 7.5, 100 mM NaCl, 1 mg/ml BSA, 0.05% CHAPS; conditions: both partners purified
T1 construct: Spindlin1, human, amino acids 49-262; Modified pET15b with a minimal, non-cleavable hexahistidine tag; also called recombinant Spindlin1; source: E. coli BL21(DE3) codon plus, purified (Talon beads, gel filtration on superdex S75)
T1 sequence (Q9Y657 49-262): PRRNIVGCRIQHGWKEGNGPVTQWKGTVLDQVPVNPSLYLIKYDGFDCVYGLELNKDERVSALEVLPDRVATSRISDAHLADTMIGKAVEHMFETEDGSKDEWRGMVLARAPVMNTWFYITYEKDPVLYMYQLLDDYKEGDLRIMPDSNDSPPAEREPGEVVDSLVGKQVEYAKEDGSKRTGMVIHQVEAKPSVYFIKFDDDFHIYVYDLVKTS
parameter: pKd
Numbers only, as −log10 of the molar value.

Prompt: Tell me the measured pKd of ARTKQTARKSTGGK (trimethylated lysine at position 4; mixed isomers of 5-(and-6)-carboxyfluorescein coupled to K14 side chain, histone H3, N-terminal tail; also called fluorescent probe; fluorescein labeled peptide derived from histone H3; source: synthetic peptide, custom synthesized by Peptide Specialty Laboratories GmbH) [FL-H3K4me3] , please.
Response: 7.51
